assay-comment: Quantitative High-Throughput drug screen in 47 multiple myeloma cell lines against the NCATS MIPE library collection: KMM1_JCRB cell viability assay (AID 1918960); further: nearly all actives have a fitted effect of over 30% in size; further: potency means the concentration at half of the fitted maximal effect
condition-set: KMM1 myeloma viability, CellTiter-Glo ATP luminescence, 48 h; series mostly up to 45.8 µM
Excerpt: PI: Beverly A. Mock Ph.D. Laboratory of Cancer Biology and Genetics, Center for Cancer Research, National Cancer Institute, National Institute of Health, Bethesda, Maryland […] 5; Detector; 425V; Luminescence; Viewlux PerkinElmer. […] 1. […] Briefly, the corresponding myeloma cell lines were screened in 1,536-well plates with 500 cells, 5-uL per well for inhibition of cell viability (assessed by measuring ATP levels with CellTiterGlo). […]
Results filed as inconclusive are left out. The source made the active and inactive calls. The call rests on the fitted dose curve; in most records, active means well fitted cell-killing curve with a large enough effect; inconclusive means small, poorly fitted or top-dose-only effect, or effect the other way; inactive means no such curve, though single readings can be large or run the other way.
assay-endpoint: Potency

Here are 5 compounds together with their reported answers.
>>> result_value("CC1(C)Cc2c(-c3ccccc3)c(-c3ccc(Cl)cc3)c(CC(=O)O)n2C1")
"2.35 µM (active)"
>>> result_value("Cc1ccnc(NS(=O)(=O)c2ccc(NC(=O)Nc3ccc(S(=O)(=O)Nc4nccc(C)n4)cc3)cc2)n1")
"14.8 µM (active)"
>>> result_value("CCCc1nc2c(C)cc(-c3nc4ccccc4n3C)cc2n1Cc1ccc(-c2ccccc2C(=O)O)cc1")
"inactive"
>>> result_value("Cc1csc(NC(=O)c2sc3nc4c(c(C(F)(F)F)c3c2N)CCC4)n1")
"inactive"
>>> result_value("CC[C@H](Nc1ncnc2nc[nH]c12)c1nc2cccc(F)c2c(=O)n1-c1ccccc1")
"inactive"

Each compound below has a recorded value; state its Potency.
1. CCCC(CCC)C(=O)O
2. Cn1cnc([N+](=O)[O-])c1Sc1ncnc2nc[nH]c12
3. CS(=O)(=O)c1ccc(C(=O)Nc2ccc(Cl)c(-c3ccccn3)c2)c(Cl)c1
4. CCC(C)(C)C(=O)O[C@H]1C[C@@H](C)C=C2C=C[C@H](C)[C@H](CC[C@@H]3C[C@@H](O)CC(=O)O3)[C@H]21

[out]
1: inactive; 2: 2.96 µM (active); 3: inactive; 4: 26.4 µM (active)
